PROCEDURE_SUMMARY: Metabolic stability in human liver microsomes
CONDITION_SET: human, liver microsomes
This listing pairs compounds with measured CLint scaled at 1 μM.
API: value field is a number in mL/min/kg; no unit string.

COc1ccc(S(=O)(=O)N2CCN(C(=O)OCc3ccccc3)CC2C(=O)NO)cc1 (centres unmarked)    34.6

// switching to the query compound
# get_value(readout='CLint scaled at 1 μM', item= `O=C(O)Cc1ccccc1Nc1c(Cl)cccc1Cl` )
209

###

PROCEDURE_SUMMARY: Metabolic stability in human liver microsomes
CONDITION_SET: human, liver microsomes
This listing pairs molecules with measured remaining at 0.5 h, 1 μM.
API: value field is a number in %; no unit string.

O=C(O)Cc1ccccc1Nc1c(Cl)cccc1Cl    2.6

// switching to the query molecule
# get_value(readout='remaining at 0.5 h, 1 μM', item= COc1ccc(S(=O)(=O)N2CCN(C(=O)OCc3ccccc3)CC2C(=O)NO)cc1 (centres unmarked) )
59.3
